Recorded values, source patent US20110301200A1.

Would you kindly list fold induction at 0.1 µM for each of these molecules?
- system.under.test: TR-α (Homo sapiens, UniProt P10827)
- Sequence (P10827 1-410 isoform P10827-2): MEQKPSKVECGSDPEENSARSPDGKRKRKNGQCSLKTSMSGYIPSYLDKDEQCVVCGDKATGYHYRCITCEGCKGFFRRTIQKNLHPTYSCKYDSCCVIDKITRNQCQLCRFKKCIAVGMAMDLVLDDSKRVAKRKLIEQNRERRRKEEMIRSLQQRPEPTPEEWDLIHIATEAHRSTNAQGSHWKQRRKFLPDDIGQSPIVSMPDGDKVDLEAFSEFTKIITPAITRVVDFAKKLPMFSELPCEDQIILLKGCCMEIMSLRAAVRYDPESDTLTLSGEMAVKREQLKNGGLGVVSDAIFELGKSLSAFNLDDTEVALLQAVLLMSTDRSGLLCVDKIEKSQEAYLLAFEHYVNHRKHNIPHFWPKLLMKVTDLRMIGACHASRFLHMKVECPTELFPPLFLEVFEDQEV
- test.protocol: In vitro TR-α activity (in-house protocol)
- Type: cell-based
- setup.conditions: Conc. 100 nM; read-out: TR-α Fold Induction w.r.t T3(100 nm)
Give the figure only, with no unit attached.

Request the reported fold induction at 0.1 µM associated with O=C(O)CON=Cc1cc(Br)c(Oc2ccc(O)c(C(=O)c3ccc(Br)cc3)c2)c(Br)c1
38.3

Request the reported fold induction at 0.1 µM associated with O=C(O)CON=Cc1cc(Br)c(Oc2ccc(O)c(C(=O)c3cccc(Cl)c3)c2)c(Br)c1
52.1

Request the reported fold induction at 0.1 µM associated with O=C(O)CON=Cc1cc(Cl)c(Oc2ccc(O)c(-c3ccccc3)c2)c(Cl)c1
14

Request the reported fold induction at 0.1 µM associated with CC(C)c1cc(Oc2c(Br)cc(C=NOC(C)(C)C(=O)O)cc2Br)ccc1O
88.7

Request the reported fold induction at 0.1 µM associated with CC(ON=Cc1cc(Br)c(Oc2ccc(O)c(-c3ccccc3)c2)c(Br)c1)C(=O)O (centres unmarked)
70.2

Request the reported fold induction at 0.1 µM associated with O=C(O)CON=Cc1cc(Br)c(Oc2ccc(O)c(C(O)c3ccc(Br)cc3)c2)c(Br)c1 (centres unmarked)
22.8

Request the reported fold induction at 0.1 µM associated with CC(ON=Cc1cc(Br)c(Oc2ccc(O)c(S(=O)(=O)N3CCCC3)c2)c(Br)c1)C(=O)O (centres unmarked)
20.4

Request the reported fold induction at 0.1 µM associated with CC(ON=Cc1cc(Br)c(Oc2ccc(O)c(C(C)(C)C)c2)c(Br)c1)C(=O)O (centres unmarked)
102

* * *

- system.under.test: TR-β (Homo sapiens, UniProt P10828)
- Sequence (P10828 whole entry): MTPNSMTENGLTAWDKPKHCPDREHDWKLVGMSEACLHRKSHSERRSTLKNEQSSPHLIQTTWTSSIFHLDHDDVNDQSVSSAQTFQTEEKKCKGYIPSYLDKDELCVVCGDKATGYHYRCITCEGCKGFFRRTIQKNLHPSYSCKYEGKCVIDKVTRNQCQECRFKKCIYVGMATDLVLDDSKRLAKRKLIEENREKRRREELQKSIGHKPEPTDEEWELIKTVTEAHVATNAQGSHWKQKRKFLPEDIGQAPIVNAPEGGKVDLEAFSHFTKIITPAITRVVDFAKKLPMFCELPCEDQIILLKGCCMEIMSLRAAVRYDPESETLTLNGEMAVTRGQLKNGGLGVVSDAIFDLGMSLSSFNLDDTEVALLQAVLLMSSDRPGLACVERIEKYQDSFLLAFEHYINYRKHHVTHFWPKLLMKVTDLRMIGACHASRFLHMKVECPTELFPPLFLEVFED
- test.protocol: In vitro TR-β activity (in-house protocol)
- Type: cell-based
Would you kindly list log10(EC50) for each of these compounds?
Short version: log10 scale, EC50, nM.

Give log10(EC50) (TR-β (Homo sapiens, UniProt P10828)) of the following compound: O=C(O)CON=Cc1cc(Br)c(Oc2ccc(O)c(C(O)c3cccc(Cl)c3)c2)c(Br)c1 (centres unmarked) [Example 35]
3.69

Give log10(EC50) (TR-β (Homo sapiens, UniProt P10828)) of the following compound: CC(ON=Cc1cc(Br)c(Oc2ccc(O)c(C(C)C)c2)c(Br)c1)C(=O)O (centres unmarked) [Example 10]
0.51

Give log10(EC50) (TR-β (Homo sapiens, UniProt P10828)) of the following compound: O=C(O)CON=Cc1cc(Br)c(Oc2ccc(O)c(-c3ccccc3)c2)c(Br)c1 [Example 7]
0.46

Give log10(EC50) (TR-β (Homo sapiens, UniProt P10828)) of the following compound: CC(ON=Cc1cc(Br)c(Oc2ccc(O)c(C(=O)c3cccc(Cl)c3)c2)c(Br)c1)C(=O)O (centres unmarked) [Example 30]
2.22

Give log10(EC50) (TR-β (Homo sapiens, UniProt P10828)) of the following compound: CCC(C)c1cc(Oc2c(Br)cc(C=NOC(C)C(=O)O)cc2Br)ccc1O (centres unmarked) [Example 14]
0.00

* * *

- system.under.test: UniProt:P10827
- test.protocol: In vitro TR-α activity (in-house protocol)
- Type: cell-based
- setup.conditions: Conc. 10 nM; read-out: TR-α Fold Induction w.r.t T3(100 nm)
- Protocol: In vitro TR-α & TR-β activities were determined as per in-house protocols and the results of representative compounds are provided in tables 1 & 2 below as a proof of the efficacies of the novel class of compounds disclosed above.
Would you kindly list fold induction at 0.01 µM for each of these compounds?
Give the figure only, with no unit attached.

Request the reported fold induction at 0.01 µM associated with CCC(C)c1cc(Oc2c(Br)cc(C=NOCC(=O)O)cc2Br)ccc1O (stereo not shown)
39.8

Request the reported fold induction at 0.01 µM associated with CC(C)(ON=Cc1cc(Br)c(Oc2ccc(O)c(-c3ccccc3)c2)c(Br)c1)C(=O)O
13.1

Request the reported fold induction at 0.01 µM associated with CCC(ON=Cc1cc(Br)c(Oc2ccc(O)c(Cc3ccccc3)c2)c(Br)c1)C(=O)O (stereo not shown)
38.5

Request the reported fold induction at 0.01 µM associated with O=C(O)CON=Cc1cc(Br)c(Oc2ccc(O)c(S(=O)(=O)N3CCCC3)c2)c(Br)c1
12.8
